Source: PubChem BioAssay (NCI)

Assay: NCI Yeast Anticancer Drug Screen. Data for the mec2-1 strain (AID 157)
Conditions: S. cerevisiae mec2-1 strain, at 50.0 µM, hits give high values
This is part of a sample that, as a whole, favours compounds with a hit. Of some 79,000 tested, about 15% had one in any assay.
Label Condition not met if growth inhibition falls below 90%; label Condition met in every other case.

>>> classname("CCN(CC)CCOC(=O)CCN1CC2CCC(CC2)C1")
"Condition not met"
>>> classname("C[C@@]12C(=O)OC(=O)[C@]1(C)[C@H]1CC[C@@H]2O1")
"Condition met"
>>> classname("CC(=O)NC1=C(Oc2ccccc2)C(=O)c2ccccc2C1=O")
"Condition met"
>>> classname("CCN(CC)C(=S)N/N=C/c1cc([N+](=O)[O-])ccc1O")
"Condition not met"
>>> classname("O=[N+]([O-])C1C(c2ccccc2)CC=CC1N1CCCC1 (stereo unspecified)")
"Condition met"
>>> classname("O=C(Nc1cc(Cl)cc(Cl)c1)OCCCl")
"Condition met"

###

Items are presented alongside their recorded growth inhibition.
Experiment: NCI Yeast Anticancer Drug Screen. Data for the bub3 strain (AID 167)
Conditions: S. cerevisiae bub3 mutant strain, at 50.0 µM, hits give high values
Compounds without any hit were thinned out: in the full panel of roughly 79,000, 15% have a hit.
measuredAttribute: growth inhibition (%)

>>> number("Cc1cc(C)nc(/C=C/c2ccc(/C=C/c3cc(C)cc(C)n3)cc2)c1")
0.4
>>> number("CCCCCCCCCCCC1=NCCN1CCNCCCC")
98.4
>>> number("Nc1ccccc1SCc1csc(-c2ccc(Cl)cc2)n1")
97.1
>>> number("O=c1cccccc1O")
91.5
>>> number("COc1ccccc1C1SC(c2ccccc2)(c2ccccc2)OC1=O (stereo unspecified)")
85.9
>>> number("S=C(N/N=C1\\C=Cc2ccccc2C1)N/N=C1\\C=Cc2ccccc2C1")
62.4
>>> number("CC(C)Cc1ncc(CC(C)C)n(O)c1=O")
89.5
>>> number("CC[N+]1(C)CCC(O)(/C=C/c2ccccc2)C(C(=O)/C=C/c2ccccc2)C1 (stereo unspecified)")
99.3
>>> number("NCCSC1(O)C(=O)c2ccccc2-c2ccccc21 (stereo unspecified)")
97.8
>>> number("O=C(NCCCNCCNC(=O)c1cc(-c2ccccc2)nc2ccccc12)c1cc(-c2ccccc2)nc2ccccc12")
99.1
>>> number("CCOC(=O)N1CCN(CCCOc2ccc(Cl)cc2Cc2ccccc2)CC1")
99.5

###

Assay: NCI Yeast Anticancer Drug Screen. Data for the sgs1 mgt1 strain (AID 161);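 also: 0% = growth of cultures given vehicle only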
Details: S. cerevisiae sgs1 mgt1 strain, at 5.0 µM (retest, dose inferred, filed as 0.5), hits give high values
About 79,000 compounds went through this panel and 15% of them were active in at least one assay; those are over-represented in the sample as a whole.
measuredAttribute: growth inhibition (%)

>>> number("CCCCCCCN(CCCCCCC)CC(O)c1ccc2ccc3ccccc3c2c1 (configuration not stated)")
36
>>> number("O=C1NC(=O)N(c2ccc(Cl)c(Cl)c2)C1=O")
0
>>> number("O=C=Nc1ccccc1-c1ccc([N+](=O)[O-])cc1Cl")
8
>>> number("Cc1nc2c(=O)[nH]c3ccc(Cl)cc3c2o1")
9
>>> number("N#CSCc1ccc(CSC#N)c(Cl)c1")
18
>>> number("CSc1ncccc1C(=O)[O][Sn]([c]1ccccc1)([c]1ccccc1)[c]1ccccc1")
100
>>> number("c1ccc(C[n+]2cccc(-c3cc4ccccc4[nH]3)c2)cc1")
-9
>>> number("CCCCCCC(O)C(CO)CCCCC (configuration not stated)")
1
>>> number("CC(C)C1(c2ccccc2)C(=O)c2ccccc2C1=O")
-5
>>> number("CCCCCCCCCCCCCCCCN(CC)CC")
99
>>> number("CC(N)C(O)c1ccc2ccc3ccccc3c2c1 (configuration not stated)")
0
>>> number("OC(CCl)COc1c(Cl)c(Cl)c(Cl)c(Cl)c1Cl (configuration not stated)")
-4

###

Assay: NCI Yeast Anticancer Drug Screen. Data for the rad50 strain (AID 155);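 also: 0% = growth of vehicle-only cultures of the same strain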
Settings: S. cerevisiae rad50 strain growth inhibition; at 5.0 µM (retest, dose inferred, filed as 0.5); hits give high values
This is part of a sample that, as a whole, favours compounds with a hit. Of some 79,000 tested, about 15% had one in any assay.
Items are presented alongside their recorded growth inhibition.
measuredAttribute: growth inhibition (%)

>>> number("N#[N+]c1ccc2c(S(=O)(=O)Oc3ccc(C(=O)c4ccccc4)c(OS(=O)(=O)c4cccc5c([O-])c([N+]#N)ccc45)c3)cccc2c1[O-]")
-10
>>> number("COc1ccc(OC)c2c(C(=O)O)c(C(C)c3ccccc3)ccc12 (stereo unspecified)")
-1
>>> number("Cc1c(C)c2cc3c(=O)ccoc3c(C)c2oc1=O")
32
>>> number("Cc1cc2nc(CC(=O)c3ccncc3)c(CC(=O)c3ccncc3)nc2cc1C")
6
>>> number("Oc1c(I)cc(Cl)c2cccnc12")
64
>>> number("C/C=C(/CN/C(=C\\[N+](=O)[O-])c1ccccc1)c1ccccc1")
0
>>> number("CC1SC(=S)N(c2ccc(Cl)cc2)C1=O (stereo unspecified)")
4
>>> number("CC(=O)Nc1ccc2c(c1)[nH]c(=O)c1cc(Cl)ccc12")
60
>>> number("CC1=NN(C(=O)c2ccc(Cl)cc2)C(=O)C1N=Nc1ccc(S(=O)(=O)Nc2ncccn2)cc1 (stereo unspecified)")
61
>>> number("CC1OC2CC(=O)OC2C2=C1C(=O)c1c(O)cccc1C2=O (stereo unspecified)")
99
>>> number("Cc1cccc2c1C1OC(=O)C3CCC=C2C31 (stereo unspecified)")
-146
>>> number("Cc1ccc2c(c1)C(=O)N(CC[P+](c1ccccc1)(c1ccccc1)c1ccccc1)C2=O")
81
>>> number("c1cc(C2=NCCN2)ccc1Nc1ccc(-c2cc3ccc(C4=NCCN4)cc3[nH]2)cc1")
99
>>> number("CCC(=O)OCN1C(=O)C=CC1=O")
11
>>> number("COc1cc(C2=N/C(=C\\c3ccccc3O)C(=O)O2)cc(OC)c1OC")
-23
>>> number("O.O.O=C(O)C(O)C(O)C(OC1OC(CO)C(O)C(O)C1O)C(O)CO.O=C(O)C(O)C(O)C(OC1OC(CO)C(O)C(O)C1O)C(O)CO.[NH-]C1CCCCC1[NH-].[Pt+2] (stereo unspecified)")
-6
>>> number("CSC(SC)(C(=O)O)c1cc(-c2c(Cl)cccc2Cl)no1")
3
>>> number("Nc1ccc2c(SCCSc3c4ccccc4nc4cc(N)ccc34)c3ccccc3nc2c1")
25
>>> number("CN(C)c1cc2nc3ccccc3nc2cc1O")
2
>>> number("CC(C)N=C1NS(=O)(=O)c2ccccc21")
-2
>>> number("O=C1C=CC(=O)c2c(O)c(N3CCC[C@H]3CO)c(Cl)c(O)c21")
20

###

Experiment: NCI Yeast Anticancer Drug Screen. Data for the cln2 rad14 strain (AID 165);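 also: 0% = growth equal to vehicle treated cultures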
Details: S. cerevisiae cln2 rad14 strain, at 50.0 µM, hits give high values
The panel holds about 79,000 compounds, 15% with a hit somewhere; the sample as a whole holds those more often.
Items are presented alongside their recorded growth inhibition.
measuredAttribute: growth inhibition (%)

>>> number("CN(C)c1ccc(C(c2cc3c(cc2O)OCO3)N2CCCCC2)cc1 (configuration not stated)")
98.3
>>> number("C/C(Cl)=N\\OC(=O)Nc1ccc(C)cc1")
53.6
>>> number("Clc1cc(Cl)c(NN=C(c2ccccc2)c2ccccc2)c(Cl)c1")
99.4
>>> number("Cc1cc(/C=C/c2cccc[n+]2C)c(C)n1-c1ccccc1")
90.8
>>> number("CS(=O)(=O)OC1COC2C(I)COC12 (configuration not stated)")
13.7
>>> number("CC12CC(Br)(Br)C(=O)C3C1CCCC32")
75.7
>>> number("CCC1(C)CCC2(C)C(CCC3C4(C)CCCC32OC4=O)C1 (configuration not stated)")
91.9
>>> number("COC(=O)c1cc(-c2ccccc2)[nH]c(=O)c1C#N")
22.6
>>> number("CN(C)CCC(=O)C(=Cc1cc(Cl)cc(Cl)c1)C(=O)CCN(C)C")
40.6
>>> number("O=[N+]([O-])c1ccc(-n2ncc3cccnc32)c([N+](=O)[O-])c1")
46.9
>>> number("COc1ccc(/C=C(\\C#N)c2ccccc2)cc1OC")
54.5
>>> number("O=C(/C=C/C(=O)c1ccc(O)cc1)c1ccccc1")
24.6

###

Items are presented alongside their recorded growth inhibition.
Experiment: NCI Yeast Anticancer Drug Screen. Data for the rad50 strain (AID 155);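 also: 0% = growth of vehicle-only cultures of the same strain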
Conditions: S. cerevisiae rad50 strain growth inhibition; at 50.0 µM; hits give high values
This is part of a sample that, as a whole, favours compounds with a hit. Of some 79,000 tested, about 15% had one in any assay.
measuredAttribute: growth inhibition (%)

>>> number("Cc1cc([N+](=O)[O-])cc(Cl)c1O")
79.1
>>> number("CCCC(O)C[N+](=O)[O-] (stereo not given)")
48.2
>>> number("CCOC(=O)c1csc(/C=C/c2cc(OC)c(OC)c(OC)c2)n1")
-1.2
>>> number("CCCCN(CCCC)Cc1ccc(NC(C(=O)c2ccccc2)c2ccccc2)cc1 (stereo not given)")
85.8
>>> number("CC(=O)OCC(=O)[C@@]1(O)[C@H](C)C[C@H]2[C@@H]3C=C(C)C4=Cc5c(cnn5-c5ccccc5)C[C@]4(C)[C@@]3(F)[C@@H](O)C[C@@]21C")
82.4
>>> number("CCC1(C)CCC2(C)C(CCC3C4(C)CCCC32OC4=O)C1 (stereo not given)")
97.5
>>> number("Cc1ccc(S(=O)(=O)Nc2ccc3c(c2)C(=O)c2ccccc2-3)cc1")
91.7
>>> number("CC(=O)O[C@H]1CC[C@]2(C)C3=CC[C@]4(C)[C@@H](C(C)=O)CC[C@H]4[C@@]34C=C[C@]2(C1)C1C(=O)OC(=O)C14 (stereo not given in full)")
58.2
>>> number("CC(C)(N=Nc1ccc([N+](=O)[O-])cc1)[N+](=O)[O-]")
95.8
>>> number("O=C(c1ccc([N+](=O)[O-])cc1)N1CCCSC1=S")
26.8
